- systemName: K-RasG12C (1-169) (Homo sapiens, UniProt P01116, G12C)
- Construct: Un-tagged recombinant K-Ras G12C (1-169) at 4 μM in Buffer A; hexahistidine (cleaved yes); made in house; host or cells: Escherichia coli BL21 (DE)
- Sequence (P01116 1-169 isoform P01116-2 G12C): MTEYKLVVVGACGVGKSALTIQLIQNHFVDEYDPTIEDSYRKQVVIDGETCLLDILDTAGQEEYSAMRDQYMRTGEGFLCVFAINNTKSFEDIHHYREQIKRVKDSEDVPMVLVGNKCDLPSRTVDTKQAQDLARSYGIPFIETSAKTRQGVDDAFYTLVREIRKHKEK
- testSummary: Mass spectrometric screen for extent of covalent labeling
- Type: binding
- studyConditions: 24 h, 10 micromolar, 24 hrs; read-out: Percent reduction in activity of compound at 10 micromolar relative to control (no compound), 24 hrs
metricName: percent covalent labeling at 10 µM

compound: C=CS(=O)(=O)NC1CCN(C(=O)COc2cc(C#N)c(Cl)cc2Cl)CC1 [Ras-013]
result: 5 to 20%
--
compound: C=CS(=O)(=O)NC1CCN(C(=O)COc2c(Cl)cc(Cl)cc2-c2ccno2)CC1 [UP-I-165B]
result: ≤ 5%
--
compound: C=CS(=O)(=O)NC1CCN(C(=O)COc2cc(C(C)(C)O)c(Cl)cc2Cl)CC1 [Ras-074]
result: 40 to 60%
--
compound: C=CS(=O)(=O)NC1CCN(C(=O)COc2cc(NS(C)(=O)=O)c(Cl)cc2Cl)CC1 [Ras-061]
result: ≤ 5%
--
compound: C=CS(=O)(=O)NC1CCN(C(=O)COc2ccc(Cl)cc2C(=O)N(C)C)CC1 [Ras-025]
result: ≤ 5%
--
compound: C=CS(=O)(=O)NC1CCN(C(=O)COc2ccc(Cl)cc2C(=O)OC)CC1 [Ras-020]
result: ≤ 5%
--
compound: N#CC1(NC(=O)C2CCN(C(=O)COc3ccc(Cl)cc3Cl)CC2)CC1 [Ras-001]
result: ≤ 5%
--
compound: C=CC(=O)N1CCN(C(=O)CNc2cc(Cl)c(Cl)cc2O)CC1 [Ras-073]
result: > 60%
--
compound: C=CS(=O)(=O)NC1CCN(C(=O)COc2cc(C(=O)NCCO)c(Cl)cc2Cl)CC1 [Ras-049]
result: ≤ 5%
--
compound: C=CS(=O)(=O)NC1CCN(C(=O)COc2ccc(Cl)cc2C=O)CC1 [Ras-042]
result: 5 to 20%
--
compound: C=CS(=O)(=O)NC1CCN(C(=O)COc2c(Cl)cc(Cl)cc2Cl)CC1 [Ras-008]
result: ≤ 5%
--
compound: C=CS(=O)(=O)Nc1cc(-c2cccs2)n[nH]1 [JO-02-38B]
result: ≤ 5%
--
compound: C=CS(=O)(=O)NC1CCN(C(=O)COc2ccc(Cl)cc2C(N)=O)CC1 [Ras-023]
result: ≤ 5%
--
compound: C=CS(=O)(=O)NC1CCN(C(=O)COc2cc(OCCO)c(Cl)cc2Cl)CC1 [Ras-048]
result: 5 to 20%
--
compound: C=CS(=O)(=O)NC1CCN(C(=O)COc2cc(C(F)(F)F)c(Cl)cc2Cl)CC1 [Ras-011]
result: 20 to 40%
--
compound: C=CS(=O)(=O)NC1CCN(C(=O)COc2cc(C(C)=O)c(Cl)cc2Cl)CC1 [Ras-043]
result: ≤ 5%
--
compound: C=CS(=O)(=O)NC1CCN(C(=O)COc2cc(NC(C)=O)c(Cl)cc2Cl)CC1 [Ras-022]
result: ≤ 5%
--
compound: C=CS(=O)(=O)NC1CCN(C(=O)CNc2cc(-c3ccccc3)c(Cl)cc2OC)CC1 [Ras-082]
result: > 60%
